System: MS2 coat protein
test-name: apparent Kd, MS2 coat protein; higher = weaker binding; RNA-MaP array; FMN 200 µM where present
settings: designed as: ON switch for flavin mononucleotide; no ligand
Decide by apparent Kd: equal to or exceeding 0.04 µM means 1.0, less means 0.0.

- sequence-record: "CGUAGGAUGCAGAAGGCAUGAACAUGAGGAUCACCCAUGUGAAAACACAUGAGGAUAUGCAUCCUACGAAAAGUGCGAAAGCAC"
  class-assignment: 0.0
- sequence-record: "GUGAGUGAUAGAGGAUAUAUAGAGAGAGAGAGAAUAGAAGGCUAAACAUACAUGAACAUGAGGAUCACCCAUGUCACCCAUGUU"
  class-assignment: 0.0
- sequence-record: "CGGAAUUGUACAGGAUAUGAGGGUGCCUGAGCCUCAGAAGGGUAGACCGACAUGAGGAUCACCCAUGUAUGUGGAUAACGUCCG"
  class-assignment: 1.0
- sequence-record: "CGAGUACAUGAGGAUCACCCAUGUUAUGAAUUGUCAGGAUAUGGGUAUUGGUGACAUGCGCCAGAAGGGACGUCUG"
  class-assignment: 1.0
- sequence-record: "UAGGAGUACGUAGGAUAUGUAGGAUAUUCCUACAUGAGGAUCACCCAUGUUAGCAUGGAAGAAGGACAGAAGGACGUGCUCCUU"
  class-assignment: 1.0
- sequence-record: "GCCAUCGCAUGAGGAUAUGGCACCGUUUCGGUGCCAGAAGGCAUGUCAUAAGACAUGAGGAUCACCCAUGUGAAUAAGAUGGCA"
  class-assignment: 1.0
- sequence-record: "ACAGAGCCUGACAUGAGGAUCACCCAUGUUAGAUUGUUAUGUUAGGAUAUUGUCUAGCAACUAGACAAGAAGGGAUGCUCUGUG"
  class-assignment: 0.0
- sequence-record: "UAUCUAUUUAUGGGAUUAGAUUAUGAGGAUAUCAUUUUUUUAUACAUGAGGAUCACCCAUGUUUCUGAGAAGGCAUAUUUAAUA"
  class-assignment: 0.0
- sequence-record: "AUAAGCAUUUAUGUGUGCGUAGCACAGGAUAUGCUCCGCGCACAUGAGGAUCACCCAUGUUCGCAGCAGAAGGGUGCAUGCGUU"
  class-assignment: 1.0
- sequence-record: "GAUUGGCGACAAUUACAUGAGGAUCACCCAUGUUGUAGUAUGCAGGAUAUGUGGUAUAUUAUUUAACAGAAGGGCAAUAAUUUU"
  class-assignment: 1.0
- sequence-record: "GUAGCAUUCUGAGGAUAUUCAUACCGGAAACGGACAUGAGGAUCACCCAUGUGGCGAAAGCCUAGGGAGAAGGCAGUAUGCUAC"
  class-assignment: 1.0
- sequence-record: "UUACUCAUGUAAGGAUAUGCAGCCGAAACGGCUGUAGAAGGUACUAAAAUACAUGAGGAUCACCCAUGUCUUUUUAAUUUAGAC"
  class-assignment: 1.0
- sequence-record: "GUGGGAAUCACAGGAUAUACAUGCGCCGCUUCGUUCUACAUGAGGAUCACCCAUGUGUGGUCCGUGUAGAAGGGUGUUUGUUAC"
  class-assignment: 0.0
- sequence-record: "CCGAAUGUCACAGGAUAUGGUCCGGGCACGCGACCAGAAGGGUGAUCUCACAUGAGGAUCACCCAUGUGCAGGCGUAAGGCUGC"
  class-assignment: 0.0
- sequence-record: "GACACUAUGUUUGUCAGAUAGAGAGAGGAUAUGGCUCAUGAGACAUGAGGAUCACCCAUGUAUAAUCAGAAGGCUCGAGUAGGA"
  class-assignment: 0.0
- sequence-record: "UUACCUUAUGAGAAGGCGAUCAUGAAACAUGAUCGAGGAUAUCAUGUAAACAUGAGGAUCACCCAUGUAUGGGUAUUAUGGUAG"
  class-assignment: 1.0
- sequence-record: "GUAGCUAUCGGAGGAUAUCCUCAGCGGAAACGCACAUGAGGAUCACCCAUGUAAAUAAAUAAUUUGGAGAAGGCCGAUAGCUAC"
  class-assignment: 1.0
- sequence-record: "ACAGACCAACAGAAGGGUGAGGUGUUGUUCUUCACAGGAUAUGUUGGCAACAUGAGGAUCACCCAUGUUGGUUUUGAAGUACGU"
  class-assignment: 0.0
- sequence-record: "GGGAUAAGGCAGAAGGACAUGAGGAUCACCCAUGUAGGAUAUGCCUACAUCCGCAUCUUAGGUCUCGCUCUGUCGCGACCCUCU"
  class-assignment: 0.0
- sequence-record: "AAGCGAAAGCUAAAAUAUCUAUCAGAGGAUAUUUAUGAUACAUGAGGAUCACCCAUGUAGCGCUGGGAGAAGGCUGAUAGAUAA"
  class-assignment: 0.0
- sequence-record: "GCGCCAUUGCAAGGAUAUCCUACAGAGGGUGCAGGAGAAGGUGCAUUGGUGAGACUAUAGGACAUGAGGAUCACCCAUGUACCU"
  class-assignment: 0.0
- sequence-record: "CGAAUGUAGACAGGAUAUCCUGGACAUGAGGAUCACCCAUGUGCAUAAAAUGGAGAAGGGUCACGGAGGCCCUGUGGGCAGGGU"
  class-assignment: 1.0
- sequence-record: "CGUUUAUUUAUUGGAUUAUAUUAUGAGGAUAUCAAUAUUUAUUACAUGAGGAUCACCCAUGUUAAUGAGAAGGCAUAAUUAACG"
  class-assignment: 0.0
- sequence-record: "UUAACAUGAGGAUCACCCAUGUCGUGCUAGAUGAGUUCUGGUGAGGAUAUACAUGGUAAAGAACUGUAGAAGGCACUGGGUACA"
  class-assignment: 1.0
- sequence-record: "UAGUAUCAACGAGGAUAUAAUAUGUUCAAUUUUUUAUAUUGUUUACAUGAGGAUCACCCAUGUUAUUAGAAGGCGUAUGGGAUU"
  class-assignment: 1.0
- sequence-record: "UUAGUCAUGUGACGUGUUGACAUUCCAGAAGGGCCACAUGAGGAUCACCCAUGUCGAAGAAACAGGCAGGAUAUGGACCAAUGG"
  class-assignment: 1.0
- sequence-record: "GGUACCAACACAGGAUAUGCUAUCCUUUGGGUAGCAGAAGGGUGAAACAUGAGGAUCACCCAUGUGGUGCCAGGGCGUGAGCCC"
  class-assignment: 1.0
